Parameter: EC50. Scope: all listed entries.
- Assayed system: hα7-wt nAChR (Homo sapiens, UniProt P36544)
- Procedure details: Ca2+ flux imaging (FDSS) (Protocol B), potentiation of the choline response
- Condition description: Ca2+ assay as described in D.1; "<5" = activity did not reach a top plateau at maximal concentration
- Description: Ca^2+ Flux Imaging (FDSS) (Protocol B) […] PAM activity was detected in real time by applying the compounds to be tested to the loaded cells along with a α7 nicotinic receptor agonist during constant monitoring of cellular fluorescence in a FDSS. […] A control response to choline was calculated on each plate from the difference in peak in fluorescence in wells receiving either choline or assay buffer alone. […]

{"Compound": "CNC(=O)Cn1nc(Nc2cccc(C(F)(F)F)c2)cc1-c1cccnc1 [compound 13]", "Measured value": "> 10 µM"}

### Prompt Returns the measured EC50 for the input compound. Input: CCNC(=O)Cn1nc(Nc2ccc(F)c(F)c2)cc1-c1cccnc1 [compound 16]
### Response > 10 µM

### Prompt Name the reported EC50 value associated with the compound CNC(=O)Cn1nc(Nc2cc(F)c(F)c(F)c2)cc1-c1ccnc(C)c1 [compound 109]
### Response 1.78 µM

### Prompt Reported EC50 for CNC(=O)Cn1nc(Nc2ccc(F)c(F)c2)cc1-c1ccnc(NC)c1 [compound 61] : what is it?
### Response > 10 µM

### Prompt # query: EC50 of entry CCNC(=O)Cn1nc(Nc2cccc(OC(F)(F)F)c2)cc1-c1cccnc1 [compound 17]
### Response > 10 µM

====

- Assayed system: hα7-wt nAChR (Homo sapiens)
- Procedure details: Ca2+ flux imaging (FDSS) (Protocol B), potentiation of the choline response
- Condition description: Ca2+ assay as described in D.1; "<5" = activity did not reach a top plateau at maximal concentration
Readout kind: EC50 (nM)
Just the number in nM, nothing appended.

{"Compound": "Cc1cc(-c2cc(Nc3ccc4c(c3)OC(F)(F)O4)nn2CCC(=O)N(C)C)ccn1 [compound 94]", "Readout kind": "EC50", "Measured value": 240}
{"Compound": "Cc1cc(-c2cc(Nc3cccc(Cl)c3)nn2CCC(=O)N(C)C)cc(C)n1 [compound 56]", "Readout kind": "EC50", "Measured value": 525}
{"Compound": "Cc1cc(-c2cc(Nc3ccc(F)c(C(F)(F)F)c3)nn2CC(=O)NC2CCC2)cc(C)n1 [compound 174]", "Readout kind": "EC50", "Measured value": 219}

Turning now to a further compound:
### Prompt Which EC50 is reported for this compound? CN(C)C(=O)CCn1nc(Nc2ccc3c(c2)OC(F)(F)O3)cc1-c1ccncc1 [compound 88]
### Response 309

====

- Assayed system: hα7-wt nAChR-expressing GH4C1 cells (Homo sapiens)
- Construct: expressed in transfected cells
- Sequence (P36544 23-502): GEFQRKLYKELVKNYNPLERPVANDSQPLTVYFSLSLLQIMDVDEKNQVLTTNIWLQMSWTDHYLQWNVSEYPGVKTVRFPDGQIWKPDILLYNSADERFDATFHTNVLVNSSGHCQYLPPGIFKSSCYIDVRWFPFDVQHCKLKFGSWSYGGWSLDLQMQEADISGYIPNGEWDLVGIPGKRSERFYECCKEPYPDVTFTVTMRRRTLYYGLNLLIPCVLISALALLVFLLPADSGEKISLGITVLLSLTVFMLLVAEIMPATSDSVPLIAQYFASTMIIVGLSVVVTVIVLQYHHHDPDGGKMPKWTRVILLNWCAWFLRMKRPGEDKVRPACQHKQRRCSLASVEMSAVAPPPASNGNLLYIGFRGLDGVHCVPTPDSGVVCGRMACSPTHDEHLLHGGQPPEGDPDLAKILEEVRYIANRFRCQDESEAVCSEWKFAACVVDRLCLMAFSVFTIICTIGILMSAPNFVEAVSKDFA
- Procedure details: Patch-clamp current recording (whole-cell voltage clamp), potentiation of the choline current and PAM type
- Assay type: cell-based
- Design: key: Type 0 compounds minimally enhance the effect size of the current elicited by 1 mM choline.; Type 1 compounds enhance the effect size of the current elicited by 1 mM choline but minimally alter the kinetics of the receptor.; Type 2 compounds enhance the effect size of the current elicited by 1 mM choline while reducing the rate and/or the extent of desensitization.; Type 3 compounds enhance the effect size of the current elicited by 1 mM choline. When tested at higher concentrations up to 10 μM they completely inhibit desensitization, in particular a 1 mM choline application of 250 milliseconds.; Type 4 compounds allow for an initial desensitization of the receptor followed by a re-opening of the receptor during agonist application
- Condition description: 1 mM choline
Below, each entry is listed with its recorded PAM type.
// return a plain number; no unit text

Study these solved cases before continuing.
{"Smiles input": "CCNC(=O)Cn1nc(Nc2ccc(F)c(C(F)(F)F)c2)cc1-c1ccc(C)nc1", "Assayed system": "hα7-wt nAChR-expressing GH4C1 cells (Homo sapiens)", "PAM type": 2}
{"Smiles input": "Cc1ccnc(-c2cc(Nc3ccc(F)c(C(F)(F)F)c3)nn2CCC(=O)N(C)C)c1", "Assayed system": "hα7-wt nAChR-expressing GH4C1 cells (Homo sapiens)", "PAM type": 2}
{"Smiles input": "COc1ccc(-c2cc(Nc3ccc(F)c(F)c3)nn2CCC(=O)N(C)C)c(Cl)c1", "Assayed system": "hα7-wt nAChR-expressing GH4C1 cells (Homo sapiens)", "PAM type": 0}
{"Smiles input": "CNC(=O)Cn1nc(Nc2ccc3c(c2)OC(F)(F)O3)cc1-c1ccnc(C)c1", "Assayed system": "hα7-wt nAChR-expressing GH4C1 cells (Homo sapiens)", "PAM type": 2}
{"Smiles input": "Cc1cc(-c2cc(Nc3ccc(F)c(F)c3F)nn2CCC(=O)N(C)C)ccn1", "Assayed system": "hα7-wt nAChR-expressing GH4C1 cells (Homo sapiens)", "PAM type": 2}

### Prompt Provide value of PAM type for this record tested with hα7-wt nAChR-expressing GH4C1 cells (Homo sapiens): `Cc1cc(-c2cc(Nc3ccc(F)c(F)c3)nn2CCC(=O)N(C)C)cc(C)n1`
### Response 2

### Prompt Request body: readout PAM type, system hα7-wt nAChR-expressing GH4C1 cells (Homo sapiens), query `CCNC(=O)Cn1nc(Nc2cccc(C(F)(F)F)c2)cc1-c1cc(C)nc(C)c1` . Return the value.
### Response 2

### Prompt Given the entry `Cc1ccc(-c2cc(Nc3ccc(F)c(C(F)(F)F)c3)nn2CCC(=O)N(C)C)cn1` , what PAM type was observed with hα7-wt nAChR-expressing GH4C1 cells (Homo sapiens)?
### Response 4
